The origin of these recorded values is patent US6897219B2.

target: neuronal nicotinic receptors (α4β2 subtype high affinity site) (Rattus norvegicus, UniProt P09483+P12390); construct: The forebrain (÷cerebellum) from a male Wistar rat (150-250 g) is homogenized; from tissue; host or cells: rat forebrain (without cerebellum) membrane homogenate; test: In vitro inhibition of 3H-epibatidin binding
Sequence (P09483 31-630): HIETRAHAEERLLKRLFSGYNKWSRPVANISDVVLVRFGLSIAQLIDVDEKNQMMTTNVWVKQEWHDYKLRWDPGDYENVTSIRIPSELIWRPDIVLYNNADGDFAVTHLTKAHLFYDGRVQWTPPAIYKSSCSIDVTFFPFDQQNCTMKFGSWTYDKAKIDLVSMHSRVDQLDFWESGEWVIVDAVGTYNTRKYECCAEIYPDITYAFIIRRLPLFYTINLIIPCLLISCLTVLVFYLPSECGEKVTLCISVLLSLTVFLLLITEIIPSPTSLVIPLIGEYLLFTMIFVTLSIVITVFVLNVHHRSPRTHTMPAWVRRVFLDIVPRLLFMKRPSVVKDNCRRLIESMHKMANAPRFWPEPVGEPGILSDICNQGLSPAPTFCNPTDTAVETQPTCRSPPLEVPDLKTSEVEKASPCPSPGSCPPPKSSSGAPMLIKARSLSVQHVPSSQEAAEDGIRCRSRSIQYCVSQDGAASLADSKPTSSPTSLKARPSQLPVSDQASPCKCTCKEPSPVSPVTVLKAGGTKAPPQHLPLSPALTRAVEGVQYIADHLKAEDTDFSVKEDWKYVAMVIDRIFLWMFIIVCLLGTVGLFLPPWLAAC
Sequence (P12390 25-500): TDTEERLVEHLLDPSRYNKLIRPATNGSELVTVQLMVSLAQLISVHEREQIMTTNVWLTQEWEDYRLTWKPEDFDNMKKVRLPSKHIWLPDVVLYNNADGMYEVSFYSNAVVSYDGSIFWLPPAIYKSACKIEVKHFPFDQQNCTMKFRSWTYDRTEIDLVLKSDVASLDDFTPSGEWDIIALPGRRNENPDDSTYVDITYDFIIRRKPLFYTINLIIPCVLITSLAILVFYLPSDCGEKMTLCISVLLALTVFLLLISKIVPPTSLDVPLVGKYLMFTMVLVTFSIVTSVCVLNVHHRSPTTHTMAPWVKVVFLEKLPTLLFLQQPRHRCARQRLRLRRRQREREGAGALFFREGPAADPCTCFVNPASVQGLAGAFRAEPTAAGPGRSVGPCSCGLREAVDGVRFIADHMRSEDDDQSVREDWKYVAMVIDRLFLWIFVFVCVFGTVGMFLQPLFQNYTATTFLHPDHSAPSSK
# strict inequality: IC50 < 90 nM yields Condition met, everything else yields Condition not met

Example cases with answers are listed next.
* CN1CCCN(c2cncc(OCC3CCCCC3)c2)CC1 [Compound 14E] | Condition not met
* CN1CCCN(c2cncc(-c3ccccc3)c2)CC1 | Condition not met
* c1ccc(-c2cncc(N3CCCNCC3)c2)cc1 | Condition met
* Brc1ccc(N2CCCNCC2)cn1 | Condition met

IN: Confirm or reject: IC50 of CCCOc1cncc(N2CCCNCC2)c1 [Compound 10H, 1-(5-Propyloxy-3-pyridyl)-homopiperazine] lies strictly below 90 nM
OUT: Condition met

###

Structures can show the parent of a compound that is named as a salt.
I'd appreciate it if you could supply melting point values for the items below.

- Cc1ccc(N2CCCNCC2)nn1 (as salt: fumaric acid salt) [Compound 5K]: 102 to 105 °C
- CCCOc1cncc(N2CCCNCC2)c1 (as salt: fumaric acid salt) [Compound 10H, 1-(5-Propyloxy-3-pyridyl)-homopiperazine]: 156.2 to 157.8 °C
- CC(C)COc1cncc(N2CCCNCC2)c1 (as salt: fumaric acid salt) [Compound 6H]: 121.9 to 123.3 °C
- CN1CCCN(c2cncc(OC3CCCC3)c2)CC1 (as salt: fumaric acid salt) [Compound 25E]: 123 to 125 °C
- CC(C)CCOc1cncc(N2CCCN(C)CC2)c1 (as salt: fumaric acid salt) [Compound 12E]: 130.4 to 131.9 °C
- CCOc1cncc(N2CCN(C)CC2)c1 (as salt: fumaric acid salt) [Compound 7A]: 162.2 to 163.7 °C
- COc1cnc(Cl)c(N2CCCNCC2)c1 (as salt: fumaric acid salt): 117 to 118 °C
- COc1cncc(N2CCCN(C)CC2)c1 (as salt: fumaric acid salt) [Compound 3E]: 145 to 147 °C
- c1ccc2c(c1)ccn2-c1cncc(N2CCCNCC2)c1 (as salt: fumaric acid salt): 193 to 195 °C
- CN1CCCN(c2cnc3ccccc3c2)CC1 (as salt: fumaric acid salt) [Compound 2E, 4-Methyl-1-(3-quinolinyl)-homopiperazine]: 170 to 171 °C

Look at each molecule and report its melting point.
1. CN1CCCN(c2cncc(OCC3CC3)c2)CC1 (as salt: fumaric acid salt) [Compound 9E]
2. CCOCCOc1cncc(N2CCCNCC2)c1 (as salt: fumaric acid salt)

OUT:
1. 160.4 to 161.9 °C
2. 139.3 to 140.4 °C

###

I'd appreciate it if you could supply pIC50 values for the items below.
biological target: neuronal nicotinic receptors (α4β2 subtype high affinity site) (Rattus norvegicus, UniProt P09483+P12390); construct: The forebrain (÷cerebellum) from a male Wistar rat (150-250 g) is homogenized; from tissue; host or cells: rat forebrain (without cerebellum) membrane homogenate; assay: In vitro inhibition of 3H-epibatidin binding; conditions: rat forebrain homogenate, 0.3 nM 3H-epibatidin, 60 min at room temperature; read-out: 3H-epibatidin IC50
Answers are plain numbers, as −log10 of the molar value.

• CC(C)CCOc1cncc(N2CCCN(C)CC2)c1 [Compound 12E] = 6.57
• CCCOc1cncc(N2CCCN(C)CC2)c1 [Compound 10E] = 6.54
• Clc1ccc(N2CCCNCCC2)nn1 = 6.82

Look at each compound and report its pIC50.
1. c1cncc(N2CCNCC2)c1
2. COc1cncc(N2CCCN(C)CC2)c1
3. CN1CCN(c2cncc(-c3ccccc3)c2)CC1

OUT:
6.20
6.12
5.96
